Entry source: patent US11059810B2

test: Pharmacokinetics assay in SD rats after intragastric administration (plasma LC/MS/MS); format: in vivo; conditions: both sexes, rat, plasma, po 5.0 mg/kg, 0.5% CMC-Na suspension, read-out: Cl/F—obs (clearance)
// CL/F lookup, one value per entry
Please give the number followed by its unit.

| molecule | CL/F |
| --- | --- |
| COc1cc(C(=O)NC2CCN(C[C@H](O)c3ccc4c(c3C)COC4=O)CC2)ncc1C#N.O=C(O)CC(O)C(=O)O [Crystal form 2 of the malate] | 6.87 mL/min/kg |

Now take the following molecule into account.
Briefly, CL/F measured for COc1cc(C(=O)NC2CCN(C[C@H](O)c3ccc4c(c3C)COC4=O)CC2)ncc1C#N [Free form] : 9.82 mL/min/kg
